Quick reference for TGI among some compounds
# System: HT29 colon
# protocol-description: NCI tumour cell line growth inhibition, 48 h

compound: Cc1nc2ccc(NC(=O)CCNC(=O)CCCc3ccc(CC(C(=O)O)C(=O)O)cc3)cc2s1
measured-target: HT29 colon
TGI: > 100 µM
//
compound: CCOP(=O)(O)CN1CCNCCN(CP(=O)(O)OCC)CCNCC1
measured-target: HT29 colon
TGI: > 100 µM
//
compound: CCc1cc2c(c3c1CCCC3=O)CC1(Cc3ccc(C(=O)OC)cc3C1)C2 (centres undefined)
measured-target: HT29 colon
TGI: > 100 µM
//
compound: O=c1cc(N/N=C/c2ccc(F)cc2)c2cc(Cl)ccc2[nH]1
measured-target: HT29 colon
TGI: > 100 µM
//
compound: Cc1cc(N(CCC#N)CCC#N)ccc1N=Nc1ccc(Br)cc1
measured-target: HT29 colon
TGI: > 100 µM
//
compound: Cc1ccc(S(=O)(=O)c2ccccc2[N+](=O)[O-])cc1
measured-target: HT29 colon
TGI: > 100 µM
//
compound: COc1ncnc(S(=O)(=O)c2ccc(N=C3C(=O)N(CN4CCN(c5cc6c(cc5F)c(=O)c(C(=O)O)cn6C5CC5)CC4)c4ccc(Cl)cc43)cc2)c1OC
measured-target: HT29 colon
TGI: > 50 µM
//
compound: CC1(C)CC(=O)C2(CC(CSc3ccccc3)C(CS(=O)(=O)c3ccccc3)C2)C(=O)C1 (centres undefined)
measured-target: HT29 colon
TGI: > 100 µM
//
compound: COc1ccc(C(O)c2cc3c(N)c(C(=O)Nc4cccc(Cl)c4)sc3nc2C)cc1 (centres undefined)
measured-target: HT29 colon
TGI: > 33.4 µM
